Target: NAMPT (human, recombinant, C-terminally His-tagged) (Homo sapiens, UniProt P43490)
Sequence (P43490 whole entry): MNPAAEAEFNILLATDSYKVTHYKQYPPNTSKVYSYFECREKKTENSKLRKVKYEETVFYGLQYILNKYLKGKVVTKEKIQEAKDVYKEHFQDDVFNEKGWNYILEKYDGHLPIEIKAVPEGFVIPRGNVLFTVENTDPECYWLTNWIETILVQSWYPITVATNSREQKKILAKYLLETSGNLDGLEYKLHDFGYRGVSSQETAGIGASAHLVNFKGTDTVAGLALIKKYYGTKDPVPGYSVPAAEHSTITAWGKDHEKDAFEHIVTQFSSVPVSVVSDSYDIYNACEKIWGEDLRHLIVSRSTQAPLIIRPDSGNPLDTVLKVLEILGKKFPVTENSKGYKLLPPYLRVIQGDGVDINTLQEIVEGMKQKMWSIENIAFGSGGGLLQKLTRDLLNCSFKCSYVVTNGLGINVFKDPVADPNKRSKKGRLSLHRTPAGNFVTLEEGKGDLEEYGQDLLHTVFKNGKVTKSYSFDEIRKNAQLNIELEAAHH
Assay: Time-Resolved Fluorescence Resonance Energy Transfer (TR-FRET) Binding Assay of NAMPT
Details: without substrates; 6.8 nM NAMPT, 200 nM probe, 3 hours equilibration
pIC50: −log10 of the molar value.
Metric name: pIC50

Consider the following illustrative entries.
INSERT INTO results (compound, metric_name, measurement) VALUES
  ('O=C(CC1CCCO1)Nc1ccc(C(=O)NCc2ccc3nccn3c2)cc1 (stereo not drawn) [Example 77]', 'pIC50', 7.25),
  ('O=C(CC1CCCC1)Nc1ccc(C(=O)NCc2ccc3nccn3c2)cc1 [Example 52]', 'pIC50', 7.73);

P. O=C(NCc1ccn2ccnc2c1)c1ccc(C2CCN(C(=O)c3cc(F)ccc3F)C2)s1 (stereo not drawn) [Example 785]
Q. O=C(NCc1ccn2ccnc2c1)c1ccc(C2CCN(C(=O)c3ccc(F)cc3F)C2)cc1 (stereo not drawn) [Example 592]
R. CC(C)(C)OC(=O)N1CCC(c2ccc(NC(=O)NCc3ccn4ncnc4c3)cc2)CC1 [Example 565]
S. CC1(Cn2cc(-c3ccc(C(=O)NCc4ccn5ccnc5c4)o3)cn2)COC1 [Example 482]
// query Exam item: list the entries in increasing order of pIC50. Provide the labels, sequenced as the question asks.
// result R, S, Q, P
(R: 6.67, S: 7.12, Q: 7.41, P: 7.63)

Ref: patent US9187472B2
